Sourced from ChEMBL document CHEMBL1138711

EXPERIMENTAL SYSTEM: Integrin alpha-V/beta-5 (Homo sapiens, UniProt P06756+P18084)
Sequence (P06756 31-889 limits assumed): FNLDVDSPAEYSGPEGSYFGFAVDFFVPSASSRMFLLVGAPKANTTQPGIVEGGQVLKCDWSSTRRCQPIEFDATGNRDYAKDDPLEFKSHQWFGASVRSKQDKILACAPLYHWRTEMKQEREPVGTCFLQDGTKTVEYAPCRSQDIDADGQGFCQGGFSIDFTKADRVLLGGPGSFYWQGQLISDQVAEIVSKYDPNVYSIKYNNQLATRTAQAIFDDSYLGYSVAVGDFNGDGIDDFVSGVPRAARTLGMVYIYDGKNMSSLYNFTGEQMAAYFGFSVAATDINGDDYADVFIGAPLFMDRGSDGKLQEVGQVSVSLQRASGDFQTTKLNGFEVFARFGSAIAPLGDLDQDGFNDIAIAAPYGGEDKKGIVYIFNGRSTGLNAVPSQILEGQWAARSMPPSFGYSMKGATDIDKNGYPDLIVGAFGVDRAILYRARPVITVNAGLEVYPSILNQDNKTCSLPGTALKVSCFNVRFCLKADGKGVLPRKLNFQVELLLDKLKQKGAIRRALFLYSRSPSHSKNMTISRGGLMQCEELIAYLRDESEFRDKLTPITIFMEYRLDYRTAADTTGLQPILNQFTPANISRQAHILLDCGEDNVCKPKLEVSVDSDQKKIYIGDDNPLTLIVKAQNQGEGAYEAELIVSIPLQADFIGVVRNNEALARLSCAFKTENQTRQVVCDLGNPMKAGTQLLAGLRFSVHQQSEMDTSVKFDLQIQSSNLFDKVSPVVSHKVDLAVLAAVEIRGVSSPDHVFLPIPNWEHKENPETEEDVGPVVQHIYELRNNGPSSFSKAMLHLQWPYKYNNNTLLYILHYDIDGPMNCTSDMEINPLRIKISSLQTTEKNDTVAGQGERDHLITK
Sequence (P06756 891-1048 limits assumed): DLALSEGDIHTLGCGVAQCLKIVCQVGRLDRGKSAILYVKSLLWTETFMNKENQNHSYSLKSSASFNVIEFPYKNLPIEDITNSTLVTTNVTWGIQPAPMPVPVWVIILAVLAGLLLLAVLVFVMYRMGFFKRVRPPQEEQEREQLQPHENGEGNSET
Sequence (P18084 24-799 limits assumed): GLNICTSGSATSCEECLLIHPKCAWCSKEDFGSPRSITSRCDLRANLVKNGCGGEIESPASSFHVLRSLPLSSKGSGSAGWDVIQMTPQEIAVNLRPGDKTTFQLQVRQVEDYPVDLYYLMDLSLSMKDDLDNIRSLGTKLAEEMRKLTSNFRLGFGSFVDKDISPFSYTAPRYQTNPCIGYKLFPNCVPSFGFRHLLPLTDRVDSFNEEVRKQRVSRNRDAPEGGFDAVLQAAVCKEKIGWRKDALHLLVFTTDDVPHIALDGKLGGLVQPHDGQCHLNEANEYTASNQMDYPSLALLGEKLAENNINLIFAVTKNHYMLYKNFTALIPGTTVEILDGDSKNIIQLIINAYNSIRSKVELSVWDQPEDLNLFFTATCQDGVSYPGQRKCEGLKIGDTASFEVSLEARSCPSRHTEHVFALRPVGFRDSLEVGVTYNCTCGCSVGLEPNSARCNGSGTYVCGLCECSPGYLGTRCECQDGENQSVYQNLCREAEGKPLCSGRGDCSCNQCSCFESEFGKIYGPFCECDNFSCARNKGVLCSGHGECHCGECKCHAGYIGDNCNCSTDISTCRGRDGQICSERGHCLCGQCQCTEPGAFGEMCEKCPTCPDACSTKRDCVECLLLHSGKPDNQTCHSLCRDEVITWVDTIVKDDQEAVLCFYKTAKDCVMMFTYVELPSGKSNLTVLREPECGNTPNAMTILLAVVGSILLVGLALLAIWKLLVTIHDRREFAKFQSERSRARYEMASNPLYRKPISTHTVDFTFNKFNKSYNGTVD
RUN DESCRIPTION: Inhibitory concentration for human vitronectin binding to immobilized alphaV-beta5 integrin
MEASUREMENT TYPE: pIC50
The scale used: pIC50 is minus the common logarithm of the concentration in molar units.

Q: Please look at O=C(O)C[C@@H](C1CCN(C(=O)CCCc2ccc3c(n2)NCCC3)CC1)C1CNc2ccccc2C1 (mixture of isomers) and tell me its recorded pIC50 on Integrin alpha-V/beta-5 (Homo sapiens, UniProt P06756+P18084).
Ans: 6.59

Q: Give Integrin alpha-V/beta-5 (Homo sapiens, UniProt P06756+P18084) pIC50 for the following molecule: CN1CC(C(CC(=O)O)CC2CCN(C(=O)CCc3ccc4c(n3)NCCC4)CC2)Cc2ccccc21 (racemic)
Ans: 6.74

More entries:
Q: Report its pIC50 with Integrin alpha-V/beta-5 (Homo sapiens, UniProt P06756+P18084) as the test system: O=C(O)C[C@@H](CC1CCN(C(=O)CCc2ccc3c(n2)NCCC3)CC1)c1cnc2c(c1)CCCC2 (stereo in doubt; form 4)
Ans: 5.66

Q: # lookup: Integrin alpha-V/beta-5 (Homo sapiens, UniProt P06756+P18084) pIC50, key = `O=C(O)C[C@H](NC(=O)C1CCN(C(=O)CCc2ccc3c(n2)NCCC3)CC1)c1cnc2ccccc2c1`
Ans: 6.57

Q: Report value only: pIC50, Integrin alpha-V/beta-5 (Homo sapiens, UniProt P06756+P18084), COc1ccc([C@@H](CC(=O)O)CC2CCN(C(=O)CCc3ccc4c(n3)NCCC4)CC2)cn1 (stereo in doubt; form 2)
Ans: 7.01

Q: Look up and report measured pIC50 (Integrin alpha-V/beta-5 (Homo sapiens, UniProt P06756+P18084)) for the following molecule: `O=C(O)C[C@@H](CC1CCN(C(=O)CCc2ccc3c(n2)NCCC3)CC1)c1cnc2ccccc2c1`
Ans: 8.66

Q: Lab note: Integrin alpha-V/beta-5 (Homo sapiens, UniProt P06756+P18084) assay, enter pIC50 for O=C(O)C[C@@H](C1CCN(C(=O)CCCc2ccc3c(n2)NCCC3)CC1)C1CNc2ccccc2C1 (stereo in doubt; form 2) here
Ans: 5.82

* * *

EXPERIMENTAL SYSTEM: Integrin alpha-IIb/beta-3 (Homo sapiens, UniProt P05106+P08514)
Sequence (P05106 27-788 limits assumed): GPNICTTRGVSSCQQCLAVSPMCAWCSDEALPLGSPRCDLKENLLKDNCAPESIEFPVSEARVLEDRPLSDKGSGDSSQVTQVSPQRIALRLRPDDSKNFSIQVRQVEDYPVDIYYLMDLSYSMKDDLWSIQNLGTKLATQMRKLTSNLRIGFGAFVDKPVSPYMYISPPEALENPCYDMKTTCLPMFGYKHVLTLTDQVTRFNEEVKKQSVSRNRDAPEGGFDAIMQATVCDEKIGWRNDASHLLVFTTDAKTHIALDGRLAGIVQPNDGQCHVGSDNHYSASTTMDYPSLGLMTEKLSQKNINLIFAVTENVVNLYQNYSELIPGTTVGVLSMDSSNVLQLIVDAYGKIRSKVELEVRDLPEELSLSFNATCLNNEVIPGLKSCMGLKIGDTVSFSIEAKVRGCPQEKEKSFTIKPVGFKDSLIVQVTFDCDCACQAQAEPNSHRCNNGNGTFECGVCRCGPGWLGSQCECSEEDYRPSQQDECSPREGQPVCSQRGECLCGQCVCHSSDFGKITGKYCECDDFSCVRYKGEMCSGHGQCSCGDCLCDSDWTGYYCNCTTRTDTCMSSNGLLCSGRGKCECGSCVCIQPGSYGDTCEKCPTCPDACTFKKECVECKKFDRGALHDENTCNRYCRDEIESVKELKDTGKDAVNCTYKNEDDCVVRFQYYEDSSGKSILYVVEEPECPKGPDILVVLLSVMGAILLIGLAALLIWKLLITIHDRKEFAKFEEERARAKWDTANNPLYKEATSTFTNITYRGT
Sequence (P08514 32-887 limits assumed): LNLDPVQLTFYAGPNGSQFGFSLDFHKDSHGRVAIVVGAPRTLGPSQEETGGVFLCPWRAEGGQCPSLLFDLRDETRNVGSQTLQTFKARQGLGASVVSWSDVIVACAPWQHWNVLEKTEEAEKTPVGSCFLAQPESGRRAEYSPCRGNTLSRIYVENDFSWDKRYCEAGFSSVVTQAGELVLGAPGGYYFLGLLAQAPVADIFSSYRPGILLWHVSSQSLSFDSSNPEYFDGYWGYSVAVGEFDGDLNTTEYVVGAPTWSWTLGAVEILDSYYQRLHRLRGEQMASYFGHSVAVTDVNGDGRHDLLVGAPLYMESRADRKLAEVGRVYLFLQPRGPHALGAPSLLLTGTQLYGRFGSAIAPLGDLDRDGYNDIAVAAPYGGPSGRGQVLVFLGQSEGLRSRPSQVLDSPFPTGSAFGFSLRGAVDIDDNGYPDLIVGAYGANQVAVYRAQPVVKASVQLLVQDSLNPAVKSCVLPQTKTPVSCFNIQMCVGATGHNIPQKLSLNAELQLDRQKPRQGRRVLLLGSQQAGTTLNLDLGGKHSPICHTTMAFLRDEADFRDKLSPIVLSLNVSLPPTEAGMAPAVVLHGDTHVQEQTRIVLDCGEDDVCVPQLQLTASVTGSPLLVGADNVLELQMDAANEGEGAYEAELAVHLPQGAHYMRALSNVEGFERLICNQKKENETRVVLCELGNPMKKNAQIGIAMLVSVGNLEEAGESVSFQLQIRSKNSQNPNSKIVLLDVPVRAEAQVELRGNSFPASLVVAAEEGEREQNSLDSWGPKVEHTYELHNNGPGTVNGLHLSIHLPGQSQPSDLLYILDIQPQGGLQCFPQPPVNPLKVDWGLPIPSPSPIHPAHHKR
Sequence (P08514 891-1039 limits assumed): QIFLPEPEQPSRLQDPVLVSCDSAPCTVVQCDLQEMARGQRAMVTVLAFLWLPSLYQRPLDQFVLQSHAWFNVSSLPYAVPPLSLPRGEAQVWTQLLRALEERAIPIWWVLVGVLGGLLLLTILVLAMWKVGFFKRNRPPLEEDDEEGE
RUN DESCRIPTION: Inhibitory concentration for biotinylated fibrinogen binding to immobilized alpha IIb beta-3 integrin
This section presents compounds with their documented pIC50 values.
pIC50 here: minus log base 10 of the concentration, concentration in moles per litre.

Q: Query pIC50 for `O=C(O)C[C@H](NC(=O)C1CCN(C(=O)CCc2ccc3c(n2)NCCC3)CC1)c1cnc2ccccc2c1`
Ans: 5.54

Next, consider the following compound.
Q: Return pIC50 (reported value) for this compound: `O=C(O)C[C@H](NC(=O)C1CCN(C(=O)CCCNC2=NCCN2)CC1)c1cnc2ccccc2c1`
Ans: 6.77

* * *

Attribute: F
RUN DESCRIPTION: Oral bioavailability in rat
Format: ADME, organism-based
CONDITION SET: in vivo
Just the number please, in %, no unit attached.

Q: Identify measured F corresponding to O=C(O)C[C@@H](C1CCN(C(=O)CCCc2ccc3c(n2)NCCC3)CC1)C1CNc2ccccc2C1 (single isomer, unassigned; isomer d)
Ans: 52

Q: Provide F value for the following molecule: O=C(O)C[C@@H](CC1CCN(C(=O)CCc2ccc3c(n2)NCCC3)CC1)c1cnc2c(c1)CCCC2 (stereo in doubt; 28)
Ans: 0

Q: For the molecule COc1ccc([C@@H](CC(=O)O)CC2CCN(C(=O)CCc3ccc4c(n3)NCCC4)CC2)cn1 (stereo in doubt; form 1) , give its measured F value.
Ans: 2

Q: Please list F recorded for the molecule O=C(O)C[C@@H](C1CCN(C(=O)CCCc2ccc3c(n2)NCCC3)CC1)C1CNc2ccccc2C1 (mixture of isomers)
Ans: 100

Q: Give F for COc1ccc([C@@H](CC(=O)O)CC2CCN(C(=O)CCc3ccc4c(n3)NCCC4)CC2)cn1 (stereo in doubt; 34)
Ans: 8

Turning now to a further molecule:
Q: For O=C(O)C[C@@H](C1CCN(C(=O)CCCc2ccc3c(n2)NCCC3)CC1)C1CNc2ccccc2C1 (stereo in doubt; form 1) , write its F.
Ans: 46
